METHOD_DESCRIPTION: chemical genetic growth profiling, strain panel (AID 1159580);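 note: tested at 20 µM; growth read once vehicle control cultures reached saturation at 30 °C; 1 = growth at the plate median or of vehicle wells; lower values mean less growth of the strain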
CONDITION_LABEL: S. cerevisiae deletion strains, growth OD, locus YKL190W, strain CNB1, active compounds read low
Screen size: about 5,500 compounds; about 2,000 (36%) were called active. Another 18% or so got no clear call; they are omitted. The list shows a part of the results.
OUTCOME_MEASURE: normalized growth

Observe how each entry below is paired with its result.
CC(C)(C)NCC(O)c1cc(Cl)c(N)c(Cl)c1 (stereo not given) ... 1 (inactive)
Cc1cc(C)c(CSCCNC(=O)Nc2ccc(F)cc2F)c(C)c1 ... 1.02 (inactive)
CCOC(=O)/C(C#N)=C/c1ccc(Br)cc1 ... 0.804 (active)
CO[C@@]1(NC(=O)C(C(=O)O)c2ccc(O)cc2)C(=O)N2C(C(=O)O)=C(CSc3nnnn3C)CO[C@@H]21 (stereo not given in full) ... 1.02 (inactive)
COc1ccc2c(c1C(C)C)CCC1C(C)(C)C(=O)CCC21C (stereo not given) ... 0.988 (inactive)

Quick one: normalized growth for `S=c1nccc(-c2ccc(Cl)cc2)[nH]1` ?
0.849 (active)

// next record CCN(Cc1ccncc1)C(=O)C(CO)c1ccccc1 (stereo not given)
0.992 (inactive)

// next record CC1O[C@@H](Oc2c(-c3ccc(O)c(O)c3)oc3cc(O)cc(O)c3c2=O)[C@H](O)[C@H](O)[C@H]1O (stereo not given in full)
0.998 (inactive)

// next record `COc1ccc(-c2cc(=O)c3c(O)cc(O[C@@H]4O[C@H](CO[C@H]5O[C@H](C)[C@@H](O)[C@H](O)[C@@H]5O)[C@@H](O)[C@H](O)[C@H]4O)cc3o2)cc1O`
0.994 (inactive)

// next record CCCCC1C(=O)N(c2ccccc2)N(c2ccc(O)cc2)C1=O (stereo not given)
1 (inactive)

---

METHOD_DESCRIPTION: chemical genetic growth profiling, strain panel (AID 1159580);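 note: tested at 20 µM; growth read once vehicle control cultures reached saturation at 30 °C; 1 = growth at the plate median or of vehicle wells; lower values mean less growth of the strain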
CONDITION_LABEL: S. cerevisiae deletion strains, growth OD, locus YGR252W, strain gcn5, active compounds read low
Screen size: about 5,500 compounds; about 2,000 (36%) were called active. Roughly 18% stayed inconclusive and do not appear here. The list shows a part of the results.
# Lookup of reported normalized growth keyed by entry

Observe how each entry below is paired with its result.
CC(=O)O[C@@H]1CC(=O)[C@@]2(C)C(CC(=O)[C@]3(C)C2CC[C@@]2(C)[C@H](c4ccoc4)OC(=O)C4OC423)C1(C)C (some centres undefined) ... 0.976 (inactive)
CC1(C)C2CC(=O)[C@]3(C)C(CC[C@@]4(C)[C@H](c5ccoc5)OC(=O)[C@H]5O[C@]543)[C@@]2(C)C(=O)C[C@H]1O (some centres undefined) ... 0.993 (inactive)
NC(=O)CN1CCCC1=O ... 0.997 (inactive)

// next item, normalized growth requested
Quick one: normalized growth for CC1(C)C=CC(=O)[C@@]2(C)C1CC(=O)[C@]1(C)C2CC[C@@]2(C)[C@H](c3ccoc3)OC(=O)C3OC321 (some centres undefined) ?
0.966 (inactive)

---

# Lookup of reported normalized growth keyed by entry
METHOD_DESCRIPTION: chemical genetic growth profiling, strain panel (AID 1159580);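 note: tested at 20 µM; growth read once vehicle control cultures reached saturation at 30 °C; 1 = growth at the plate median or of vehicle wells; lower values mean less growth of the strain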
CONDITION_LABEL: S. cerevisiae deletion strains, growth OD, locus YER111C, strain swi4, active compounds read low
About 2,000 (36%) of roughly 5,500 compounds were called active. Another 18% or so got no clear call; they are omitted. Some of the results follow.
No unit in the answer, please; the number alone is enough.

CN[C@@H]1[C@@H](O)C(OC2[C@@H](N)C[C@@H](N)[C@H](O[C@H]3O[C@H](C(C)O)[C@@H](O)[C@H](O)[C@H]3N)[C@H]2O)OC[C@]1(C)O (some centres not stated) ... 0.977
CN[C@@H]1C(O)[C@@H](O[C@@H]2[C@@H](O)[C@H](O[C@H]3OC(CN)=CC[C@H]3N)[C@@H](N)C[C@H]2N)OC[C@]1(C)O (some centres not stated) ... 1.02
CCCCCCC(C)OC(=O)COc1ccc(Cl)cc1Cl (configuration not stated) ... 1

Quick one: normalized growth for C=CC1C2=CCOC(=O)C2=COC1OC1OC(CO)C(O)C(O)C1O (configuration not stated) ?
1.01

// next record O=C(Cc1cccs1)NC1C(=O)N2C(C(=O)[O-])=C(C[n+]3ccccc3)CSC12 (configuration not stated)
0.96

// next record CCN[C@@H]1C[C@H](N)[C@@H](O[C@H]2OC(CN)=CC[C@H]2N)[C@H](O)[C@H]1OC1OC[C@](C)(O)[C@H](NC)[C@H]1O (some centres not stated)
0.994

// next record `CN1C[C@H](C(=O)N[C@]2(C)O[C@@]3(O)[C@@H]4CCCN4C(=O)[C@H](Cc4ccccc4)N3C2=O)C[C@@H]2c3cccc4[nH]cc(c34)C[C@H]21`
1.01
